Documented EC50 across a set of compounds
System name: DOPr (Homo sapiens, UniProt P41143)
Sequence (P41143 whole entry): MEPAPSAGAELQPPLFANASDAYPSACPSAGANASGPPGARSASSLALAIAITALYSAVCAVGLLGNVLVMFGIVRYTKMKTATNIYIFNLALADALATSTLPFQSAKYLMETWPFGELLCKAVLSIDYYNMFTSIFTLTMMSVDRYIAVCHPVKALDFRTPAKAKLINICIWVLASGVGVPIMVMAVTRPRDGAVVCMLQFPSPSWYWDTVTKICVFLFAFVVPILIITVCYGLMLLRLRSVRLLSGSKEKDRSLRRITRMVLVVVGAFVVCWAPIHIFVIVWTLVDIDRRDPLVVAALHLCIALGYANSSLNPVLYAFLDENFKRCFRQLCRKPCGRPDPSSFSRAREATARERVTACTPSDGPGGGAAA
Assay: biochemical

Some solved cases for reference:
> print(dat)
                         compound.structure  value.reported
1  CN1CC[C@]23c4c5ccc(O)c4O[C@H]2C(=O)/C(=C/c2ccc(Cl)cc2)C[C@@]3(O)[C@H]1C5          145 nM
2  CN1CC[C@]23c4c5ccc(O)c4O[C@H]2C(=O)/C(=C/c2cccc4ccccc24)C[C@@]3(O)[C@H]1C5          102 nM
3  CN1CC[C@]23c4c5ccc(O)c4O[C@H]2C(=O)/C(=C/c2ccc([N+](=O)[O-])cc2)C[C@@]3(O)[C@H]1C5           20 nM

Challenge: Field request: EC50 | item: CN1CC[C@]23c4c5ccc(O)c4O[C@H]2C(=O)/C(=C/c2ccccc2)C[C@@]3(O)[C@H]1C5
Response given: 26 nM

Challenge: Field request: EC50 | item: CN1CC[C@]23c4c5ccc(O)c4O[C@H]2C(=O)/C(=C/c2ccc(O)cc2)C[C@@]3(O)[C@H]1C5
Response given: 97 nM

Challenge: Field request: EC50 | item: COc1ccc(/C=C2\C[C@@]3(O)[C@H]4Cc5ccc(O)c6c5[C@@]3(CCN4C)[C@@H](O6)C2=O)cc1
Response given: 102 nM

###

System name: DOPr (Homo sapiens)
Construct: host or cells: CHO
Assay: biochemical
Format: binding
Conditions: Gibb's free energy converted from experimental Ki
Metric: DOPr ΔG (kcal/mol)
A number alone suffices; assume kcal/mol.

Challenge: Field request: DOPr ΔG | item: CN1CC[C@]23c4c5ccc(O)c4O[C@H]2C(=O)/C(=C/c2cccc4ccccc24)C[C@@]3(O)[C@H]1C5
Response given: -9.95

Challenge: Field request: DOPr ΔG | item: CN1CC[C@]23c4c5ccc(O)c4O[C@H]2C(=O)/C(=C/c2ccc([N+](=O)[O-])cc2)C[C@@]3(O)[C@H]1C5
Response given: -10.98

Challenge: Field request: DOPr ΔG | item: CN1CC[C@]23c4c5ccc(O)c4O[C@H]2C(=O)/C(=C/c2ccc(O)cc2)C[C@@]3(O)[C@H]1C5
Response given: -10.20

###

System name: DOPr (Homo sapiens)
Construct: host or cells: CHO
Assay: biochemical
Conditions: read-out: DOPr Emax ±SEM
Documented Emax across a set of compounds
A number alone suffices; assume %.

> print(dat)
                         compound.structure  value.reported
1  COc1ccc(/C=C2\C[C@@]3(O)[C@H]4Cc5ccc(O)c6c5[C@@]3(CCN4C)[C@@H](O6)C2=O)cc1              30
2  CN1CC[C@]23c4c5ccc(O)c4O[C@H]2C(=O)/C(=C/c2ccc(O)cc2)C[C@@]3(O)[C@H]1C5              21
3  CN1CC[C@]23c4c5ccc(O)c4O[C@H]2C(=O)/C(=C/c2ccc(Cl)cc2)C[C@@]3(O)[C@H]1C5               9
4  CN1CC[C@]23c4c5ccc(O)c4O[C@H]2C(=O)/C(=C/c2ccc([N+](=O)[O-])cc2)C[C@@]3(O)[C@H]1C5              28
5  CN1CC[C@]23c4c5ccc(O)c4O[C@H]2C(=O)/C(=C/c2cccc4ccccc24)C[C@@]3(O)[C@H]1C5              36

From here, focus on the item given below.
Challenge: What is its Emax for DOPr (Homo sapiens)? Entry: CN1CC[C@]23c4c5ccc(O)c4O[C@H]2C(=O)/C(=C/c2ccccc2)C[C@@]3(O)[C@H]1C5
Response given: 22

###

Documented Emax across a set of molecules
System name: MOPr (Homo sapiens)
Construct: host or cells: CHO
Sequence (P35372 whole entry): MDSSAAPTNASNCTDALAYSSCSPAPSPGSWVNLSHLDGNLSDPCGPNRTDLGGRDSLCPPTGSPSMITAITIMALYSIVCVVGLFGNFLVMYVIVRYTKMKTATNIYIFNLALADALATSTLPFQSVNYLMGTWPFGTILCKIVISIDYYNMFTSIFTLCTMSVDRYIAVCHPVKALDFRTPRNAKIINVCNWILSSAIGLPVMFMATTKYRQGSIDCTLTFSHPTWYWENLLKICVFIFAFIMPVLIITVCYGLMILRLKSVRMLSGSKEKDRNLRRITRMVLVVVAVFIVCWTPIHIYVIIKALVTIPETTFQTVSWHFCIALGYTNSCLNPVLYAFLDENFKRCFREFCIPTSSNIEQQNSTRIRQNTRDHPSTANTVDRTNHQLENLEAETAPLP
Assay: [35S]GTPγS coupling, MOPr-CHO membranes
Type: biochemical
Conditions: read-out: MOPr Emax ±SEM
Respond with a number, then the unit of measure.

Some solved cases for reference:
> print(dat)
                         compound.structure  metric  value.reported
1  CN1CC[C@]23c4c5ccc(O)c4O[C@H]2C(=O)/C(=C/c2ccc(F)cc2)C[C@@]3(O)[C@H]1C5    Emax             69%
2  CN1CC[C@]23c4c5ccc(O)c4O[C@H]2C(=O)/C(=C/c2ccc([N+](=O)[O-])cc2)C[C@@]3(O)[C@H]1C5    Emax             87%
3  CN1CC[C@]23c4c5ccc(O)c4O[C@H]2C(=O)/C(=C/c2ccc(O)cc2)C[C@@]3(O)[C@H]1C5    Emax             85%
4  CN1CC[C@]23c4c5ccc(O)c4O[C@H]2C(=O)/C(=C/c2ccc4ccccc4c2)C[C@@]3(O)[C@H]1C5    Emax             78%
5  COc1ccc(/C=C2\C[C@@]3(O)[C@H]4Cc5ccc(O)c6c5[C@@]3(CCN4C)[C@@H](O6)C2=O)cc1    Emax             80%

From here, focus on the item given below.
Challenge: Field request: Emax | item: CN1CC[C@]23c4c5ccc(O)c4O[C@H]2C(=O)/C(=C/c2ccccc2)C[C@@]3(O)[C@H]1C5
Response given: 53%

###

System name: KOPr (Homo sapiens, UniProt P41145)
Construct: host or cells: CHO
Sequence (P41145 whole entry): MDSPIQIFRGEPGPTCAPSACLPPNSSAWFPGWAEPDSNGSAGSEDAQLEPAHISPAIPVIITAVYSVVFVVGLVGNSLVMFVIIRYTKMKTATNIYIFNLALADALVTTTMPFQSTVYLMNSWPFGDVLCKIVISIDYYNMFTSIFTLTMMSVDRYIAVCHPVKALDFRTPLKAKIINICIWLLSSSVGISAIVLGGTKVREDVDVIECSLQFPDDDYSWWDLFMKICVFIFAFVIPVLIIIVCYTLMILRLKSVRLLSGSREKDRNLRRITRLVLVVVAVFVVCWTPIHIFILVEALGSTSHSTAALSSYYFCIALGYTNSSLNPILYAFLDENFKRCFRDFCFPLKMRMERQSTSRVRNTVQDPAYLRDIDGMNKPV
Assay: biochemical
Assay type: binding
Conditions: ratio of binding Ki
Documented Selectivity KOPr/MOPr (Ki) across a set of molecules

> print(dat)
                         compound.structure                      metric  value.reported
1  CN1CC[C@]23c4c5ccc(O)c4O[C@H]2C(=O)/C(=C/c2ccc4ccccc4c2)C[C@@]3(O)[C@H]1C5  Selectivity KOPr/MOPr (Ki)             299
2  CN1CC[C@]23c4c5ccc(O)c4O[C@H]2C(=O)/C(=C/c2ccc([N+](=O)[O-])cc2)C[C@@]3(O)[C@H]1C5  Selectivity KOPr/MOPr (Ki)             197
3  CN1CC[C@]23c4c5ccc(O)c4O[C@H]2C(=O)/C(=C/c2ccc(Br)cc2)C[C@@]3(O)[C@H]1C5  Selectivity KOPr/MOPr (Ki)             >25
4  COc1ccc(/C=C2\C[C@@]3(O)[C@H]4Cc5ccc(O)c6c5[C@@]3(CCN4C)[C@@H](O6)C2=O)cc1  Selectivity KOPr/MOPr (Ki)             >90
5  CN1CC[C@]23c4c5ccc(O)c4O[C@H]2C(=O)/C(=C/c2ccc(Cl)cc2)C[C@@]3(O)[C@H]1C5  Selectivity KOPr/MOPr (Ki)             >42

Challenge: Field request: Selectivity KOPr/MOPr (Ki) | item: CN1CC[C@]23c4c5ccc(O)c4O[C@H]2C(=O)/C(=C/c2cccc4ccccc24)C[C@@]3(O)[C@H]1C5
Response given: >13

Challenge: Field request: Selectivity KOPr/MOPr (Ki) | item: CN1CC[C@]23c4c5ccc(O)c4O[C@H]2C(=O)/C(=C/c2ccc(F)cc2)C[C@@]3(O)[C@H]1C5
Response given: >50

Challenge: Field request: Selectivity KOPr/MOPr (Ki) | item: CN1CC[C@]23c4c5ccc(O)c4O[C@H]2C(=O)/C(=C/c2ccc(O)cc2)C[C@@]3(O)[C@H]1C5
Response given: >44

###

Documented MOPr ΔG across a set of compounds
System name: MOPr (Homo sapiens)
Construct: host or cells: CHO
Assay: biochemical
Assay type: binding
Conditions: Gibb's free energy converted from experimental Ki
Respond with a number, then the unit of measure.

> print(dat)
                         compound.structure          value.reported
1  CN1CC[C@]23c4c5ccc(O)c4O[C@H]2C(=O)/C(=C/c2ccc(Cl)cc2)C[C@@]3(O)[C@H]1C5  -10.46 ± 0.03 kcal/mol

From here, focus on the item given below.
Challenge: Field request: MOPr ΔG | item: CN1CC[C@]23c4c5ccc(O)c4O[C@H]2C(=O)/C(=C/c2cccc4ccccc24)C[C@@]3(O)[C@H]1C5
Response given: -9.78 ± 0.17 kcal/mol

###

System name: KOPr (Homo sapiens)
Construct: host or cells: CHO
Assay: biochemical
Assay type: binding
Conditions: [3H]-diprenorphine, CHO membranes, n = 3, mean ± SEM
Metric: Ki

Some solved cases for reference:
> print(dat)
                         compound.structure  metric  value.reported
1  CN1CC[C@]23c4c5ccc(O)c4O[C@H]2C(=O)/C(=C/c2ccc4ccccc4c2)C[C@@]3(O)[C@H]1C5      Ki          390 nM
2  CN1CC[C@]23c4c5ccc(O)c4O[C@H]2C(=O)/C(=C/c2ccc(O)cc2)C[C@@]3(O)[C@H]1C5      Ki       > 1000 nM
3  CN1CC[C@]23c4c5ccc(O)c4O[C@H]2C(=O)/C(=C/c2ccc(F)cc2)C[C@@]3(O)[C@H]1C5      Ki       > 1000 nM
4  CN1CC[C@]23c4c5ccc(O)c4O[C@H]2C(=O)/C(=C/c2ccc(Cl)cc2)C[C@@]3(O)[C@H]1C5      Ki       > 1000 nM

Challenge: Field request: Ki | item: COc1ccc(/C=C2\C[C@@]3(O)[C@H]4Cc5ccc(O)c6c5[C@@]3(CCN4C)[C@@H](O6)C2=O)cc1
Response given: > 1000 nM

Challenge: Field request: Ki | item: CN1CC[C@]23c4c5ccc(O)c4O[C@H]2C(=O)/C(=C/c2ccc([N+](=O)[O-])cc2)C[C@@]3(O)[C@H]1C5
Response given: 180 nM

Challenge: Field request: Ki | item: CN1CC[C@]23c4c5ccc(O)c4O[C@H]2C(=O)/C(=C/c2ccc(Br)cc2)C[C@@]3(O)[C@H]1C5
Response given: > 1000 nM

Challenge: Field request: Ki | item: CN1CC[C@]23c4c5ccc(O)c4O[C@H]2C(=O)/C(=C/c2cccc4ccccc24)C[C@@]3(O)[C@H]1C5
Response given: > 1000 nM
